Each recorded value in this set is attributed to patent US20260226179A1.

# experimentalTarget: T1, human soluble IL-6R (human, UniProt P08887 20-357)
# T1 sequence: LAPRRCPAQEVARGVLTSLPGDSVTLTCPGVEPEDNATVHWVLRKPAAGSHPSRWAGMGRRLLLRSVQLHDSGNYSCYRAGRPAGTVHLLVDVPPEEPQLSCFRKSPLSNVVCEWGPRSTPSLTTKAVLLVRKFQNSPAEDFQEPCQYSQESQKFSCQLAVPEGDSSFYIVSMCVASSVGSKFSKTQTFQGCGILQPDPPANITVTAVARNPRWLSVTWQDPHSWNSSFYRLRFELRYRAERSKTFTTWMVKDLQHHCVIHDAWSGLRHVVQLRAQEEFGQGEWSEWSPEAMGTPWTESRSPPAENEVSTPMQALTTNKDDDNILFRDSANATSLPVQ
# experimentalDetails: cell-based or functional assay
readoutLabel: Residual STAT3 phosphorylation in HEK293 (IL-6 + sIL-6R; IL-6 trans signalling; 1% PE) (%)

>>> measurednumber("candidate anti-IL-6R Fab clone 12 (Fab, V domains shown) VH: EVKLMESGGGLVQPGGSLKLSCAASGFTFSNYGMSWVRQTPDKRLEWVANINSNGGSTYYPDSVKGRFTISRDNAQNTLYLQMSSLKSEDTAMYYCTRDGNFVSDYWGQGTTLTVSS VL: DIVLTQSPASLAVSPGQRATISCRASESVDSYGNSFMNWYQQKPGQPPKLLIYLASNLESGVPARFSGSGSRTDFTLTIDPVEADDAATYYCQQNNEDPYTFGGGTKLEIK")
42
